- Tested on: IGROV1 ovarian
- test: NCI tumour cell line growth inhibition, 48 h
Documented TGI across a set of compounds
readout-type: TGI

{"compound": "O=C(CN1CCCCC1)CC(O)(C(F)(F)F)C(F)(F)F", "assay-value": "> 100 µM"}
{"compound": "c1ccc2c(c1)[nH]c1nc3cc(-c4ccc5nc6c(nc5c4)[nH]c4ccccc46)ccc3nc12", "assay-value": "> 100 µM"}
{"compound": "CCOC(=O)C1=C(C)N(Cc2ccccc2)C(C)=C(C(=O)OCC)C1c1ccccc1O", "assay-value": "> 100 µM"}
{"compound": "COC(=O)c1c(C)cccc1/C=C1/Cc2c(C)cccc2C1=O", "assay-value": "> 100 µM"}
{"compound": "COc1cc(/C=C/C(=O)O)ccc1C(=O)O/C=C/c1ccccc1", "assay-value": "> 100 µM"}
{"compound": "COc1cc2c(cc1OC)C1c3ccccc3CCN1CC2 (centres undefined)", "assay-value": "> 100 µM"}
{"compound": "Cc1ccc(/C=C2\\CN(C(=O)OC(C)(C)C)C/C(=C\\c3ccc(C)cc3)C2=O)cc1", "assay-value": "> 100 µM"}
{"compound": "C/C(=N/NC(N)=S)c1ccc2ccccc2c1", "assay-value": "> 100 µM"}
{"compound": "CCCCCCCCCCCCOC(=S)NCCCC", "assay-value": "81.1 µM"}
{"compound": "C[n+]1c(-c2ccccc2)cc2/c(=C\\c3ccc([N+](=O)[O-])cc3)c3ccccc3n21", "assay-value": "9.53 µM"}
{"compound": "CNC(=O)c1cncc(/C=C/c2ccccc2C)c1", "assay-value": "> 25 µM"}
{"compound": "O=C(Nc1cccc2cnccc12)c1cc2c(cc1Cl)Sc1nccn1S2(=O)=O", "assay-value": "45.8 µM"}
{"compound": "N#Cc1nc(-c2cc([N+](=O)[O-])cc([N+](=O)[O-])c2)oc1N", "assay-value": "> 10 µM"}
{"compound": "O=[N+]([O-])C(=C(N1CCCCC1)N1CCCCC1)/C(Cl)=C(\\Cl)Br", "assay-value": "90.8 µM"}

====

- Test system: SW-620 colon
- test: NCI tumour cell line growth inhibition, 48 h
Documented GI50 across a set of molecules

{"smiles-record": "CN(C)S(=O)(=O)c1ccc(NC(=O)COC(=O)c2ccc(S(=O)(=O)N3CCCCC3)cc2)cc1", "target-or-test-system": "SW-620 colon", "GI50": "> 100 µM"}
{"smiles-record": "Nc1ccn(Cc2ccc(C34CC5CC(CC(C5)C3)C4)c(O)c2)c(=O)n1", "target-or-test-system": "SW-620 colon", "GI50": "> 100 µM"}
{"smiles-record": "CCCC[C@H](NC(=O)[C@H]1CCCN1C)C(=O)N(C)[C@H](C[C@@H](OC(C)=O)c1nc(C(=O)N[C@@H](Cc2ccccc2)C[C@H](C)C(=O)OCC)cs1)C(C)C", "target-or-test-system": "SW-620 colon", "GI50": "0.0106 µM"}
{"smiles-record": "COc1cc(Cl)cc(-c2nn(C(=O)NCCN3CCOCC3)cc2-c2ccncc2)c1", "target-or-test-system": "SW-620 colon", "GI50": "4.28 µM"}

====

Documented TGI across a set of compounds
- System: MDA-MB-435
- test: NCI tumour cell line growth inhibition, 48 h

{"compound": "C=CCc1c2c(c(OC)c3ccoc13)C(=O)/C(=C/c1ccccc1OC)O2", "TGI": "> 100 µM"}
{"compound": "CC1(C)O[C@@H]2COC(=O)[C@@H]2O1", "TGI": "> 100 µM"}
{"compound": "C[C@H](Nc1ncnc2nc[nH]c12)c1cc2cccc(Cl)c2c(=O)n1-c1ccccc1", "TGI": "> 100 µM"}
{"compound": "COC1(C(=O)N[C@@H](C)c2ccc(-n3cc(F)cn3)nc2)CCC(c2nc(C)cc(Nc3cc(C)[nH]n3)n2)CC1 (stereo not given in full)", "TGI": "21.1 µM"}
{"compound": "CC1(C)SC2C(NC(=O)C(N)c3ccccc3)C(=O)N2C1C(=O)O (stereo not given)", "TGI": "> 100 µM"}

Data credit: PubChem BioAssay (NCI)
